- study-system: T1, yedK WT (Escherichia coli (gene from BL21 …, UniProt P76318 2-222))
- T1 sequence: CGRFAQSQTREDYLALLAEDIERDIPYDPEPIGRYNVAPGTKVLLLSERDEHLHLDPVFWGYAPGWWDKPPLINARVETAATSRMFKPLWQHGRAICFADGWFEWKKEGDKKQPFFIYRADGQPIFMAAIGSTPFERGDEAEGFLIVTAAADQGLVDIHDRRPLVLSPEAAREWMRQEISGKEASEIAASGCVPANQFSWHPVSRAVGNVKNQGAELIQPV
- experimental-protocol: ITC
pKd: −log10 of the molar value.

>  <binder>
CGGTCGATTC (ssDNA) [ssDNA]

>  <pKd>
5.66

$$$$
